Assay: NCI Yeast Anticancer Drug Screen. Data for the bub3 strain (AID 167)
Details: S. cerevisiae bub3 mutant strain, at 33.0 µM, stronger effect = higher value
About 79,000 compounds went through this panel and 15% of them were active in at least one assay; those are over-represented in the sample as a whole.
Examples of molecules with documented growth inhibition follow.
Field: numeric (%). Do not append units.

// solved cases for growth inhibition follow
• COc1cc(C2C3=C(COC3=O)Oc3cc4c(cc32)OCO4)cc(OC)c1O (stereo unspecified) = 10
• CC1(C)OC(=O)C(=Cc2ccc([N+](=O)[O-])s2)C(=O)O1 = 60
• COC1=CCC23C(=O)C=CC(=O)C2(C1)C(=O)c1ccccc1C3=O (stereo unspecified) = 15
• O=C1SS(=O)c2ccccc21 (stereo unspecified) = 0
• CC(CC/C(=N/O)c1ccccc1)(CC/C(=N\O)c1ccccc1)[N+](=O)[O-] (stereo unspecified) = -9

From here, focus on the item given below.
For O=C1c2ccccc2-c2ccc(N=Cc3ccccc3)cc21 the molecule record lists growth inhibition as 9

* * *

Experiment: NCI Yeast Anticancer Drug Screen. Data for the mlh1 strain (AID 171);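 note: 0% = growth of vehicle-treated control cultures of the same strain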
Conditions: S. cerevisiae mlh1 strain growth inhibition; at 33.0 µM; stronger effect = higher value
Compounds without any hit were thinned out: in the full panel of roughly 79,000, 15% have a hit.
quantity.measured: growth inhibition (%)
Field: numeric (%). Do not append units.

For Oc1ccc(C2(c3ccc(O)cc3)CCCC2)cc1 the compound record lists growth inhibition as 98

For CC(C)N(CCCNc1c2ccccc2nc2cccc([N+](=O)[O-])c12)C(C)C the compound record lists growth inhibition as 96

For COc1ccc2cc(C(C)C(=O)N3CCOC3=O)ccc2c1 (stereo not given) the compound record lists growth inhibition as 21

For C=C(C(=O)OC)N1C(=O)CC(C)C1=O (stereo not given) the compound record lists growth inhibition as 42

* * *

Examples of molecules with documented growth inhibition follow.
Test: NCI Yeast Anticancer Drug Screen. Data for the rad52 strain (AID 147);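 note: 0% = growth of vehicle-treated control cultures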
Settings: S. cerevisiae rad52 mutant growth inhibition; at 1.2 µM; stronger effect = higher value
The panel holds about 79,000 compounds, 15% with a hit somewhere; the sample as a whole holds those more often.
Field: numeric (%). Do not append units.

// solved cases for growth inhibition follow
• CCOC(=O)CC1(C)/C(=N\Nc2ccc([N+](=O)[O-])cc2[N+](=O)[O-])CCC2C1CCC1(C)C(C(C)CCCC(C)C)CCC21 (stereo unspecified) = 0
• CNC(=O)OCc1c(COC(=O)NC)c(C)n(-c2ccc(Br)cc2)c1C = -7
• O=C(O)c1c2ccc(Cl)cc2nc2[nH]c(=O)[nH]c(=O)c12 = -38

For CCC(=O)Nc1ccc(N=NN(C)C)cc1 the molecule record lists growth inhibition as -9

For O/N=c1/ccn(O)c2ccccc12 the molecule record lists growth inhibition as 49

For N#CC1OB(O)c2ccccc21 (stereo unspecified) the molecule record lists growth inhibition as -9

* * *

Assay: NCI Yeast Anticancer Drug Screen. Data for the rad14 strain (AID 159);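 note: 0% = growth of vehicle-treated control cultures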
Details: S. cerevisiae rad14 strain growth inhibition; at 33.0 µM; stronger effect = higher value
The panel holds about 79,000 compounds, 15% with a hit somewhere; the sample as a whole holds those more often.
quantity.measured: growth inhibition (%)
Field: numeric (%). Do not append units.

• O=C1c2ccccc2N2OC3(N4CCCC4)CCCCC3C12c1ccccc1 (configuration not stated) = -17
• c1ccc2c(c1)N=C1CCCC3CCCC123 (configuration not stated) = 3
• CN(CCOc1ccc(Cl)cc1)CCOc1ccc(Cl)cc1 = 99
• CCCCCCC1OCC(O)C(OCCCC)O1 (configuration not stated) = -3
• CO[C@@]1([C@@H](Cl)c2ccccc2)C(=O)N(C)/C(=C\c2ccccc2)C(=O)N1C = 10

For Cc1cccc2c1C1c3c(C)cccc3C(CC(=O)O)CC1CC2 (configuration not stated) the compound record lists growth inhibition as 95

For Cc1c2c(nc3ccccc13)C(=O)c1cccnc1C2=O the compound record lists growth inhibition as 23

For O=C1CSC(c2ccccc2)N1c1ccc(-c2ccc(-n3c(-c4ccccc4)nc4ccccc4c3=O)cc2)cc1 (configuration not stated) the compound record lists growth inhibition as 36

For O=[N+]([O-])c1cc(Cl)ccc1S(=O)(=O)c1ccc(Cl)cc1[N+](=O)[O-] the compound record lists growth inhibition as 88

For COC(=O)c1ccccc1N=NNc1cccc(SC)c1 the compound record lists growth inhibition as 93

For CCCCCCCCCCCNC=O the compound record lists growth inhibition as 30

For CCOC(=S)SSSC(=S)OCC the compound record lists growth inhibition as 96

For O=C1C(CCSc2ccccc2)C(=O)N(c2ccccc2)C1c1ccccc1 (configuration not stated) the compound record lists growth inhibition as 93

For COc1cc(NCCCCNCC(C)(C)C)c2ncccc2c1 the compound record lists growth inhibition as 32
